- tgt: integrin αβ8 (αvβ8), form in the assay not stated (UniProt P06756 31-992)
- Sequence (chain, as listed by the source, chain 1 of 2): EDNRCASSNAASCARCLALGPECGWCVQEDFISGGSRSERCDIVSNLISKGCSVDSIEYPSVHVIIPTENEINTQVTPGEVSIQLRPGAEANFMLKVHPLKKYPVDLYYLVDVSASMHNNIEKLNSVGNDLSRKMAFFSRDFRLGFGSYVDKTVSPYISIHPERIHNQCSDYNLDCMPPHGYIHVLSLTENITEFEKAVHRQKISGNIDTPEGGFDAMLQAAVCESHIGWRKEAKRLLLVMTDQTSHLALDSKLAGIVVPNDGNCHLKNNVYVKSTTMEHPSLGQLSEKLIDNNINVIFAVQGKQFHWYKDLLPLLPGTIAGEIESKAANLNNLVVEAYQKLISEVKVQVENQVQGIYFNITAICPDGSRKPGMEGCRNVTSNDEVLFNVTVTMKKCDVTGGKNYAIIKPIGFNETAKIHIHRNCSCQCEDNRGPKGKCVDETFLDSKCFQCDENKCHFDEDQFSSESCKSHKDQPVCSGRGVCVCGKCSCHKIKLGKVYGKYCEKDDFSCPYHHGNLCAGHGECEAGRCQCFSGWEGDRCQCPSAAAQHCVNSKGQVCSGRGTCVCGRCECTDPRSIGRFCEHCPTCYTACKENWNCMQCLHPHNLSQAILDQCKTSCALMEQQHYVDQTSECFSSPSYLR
- Sequence (P06756 31-992, chain 2 of 2): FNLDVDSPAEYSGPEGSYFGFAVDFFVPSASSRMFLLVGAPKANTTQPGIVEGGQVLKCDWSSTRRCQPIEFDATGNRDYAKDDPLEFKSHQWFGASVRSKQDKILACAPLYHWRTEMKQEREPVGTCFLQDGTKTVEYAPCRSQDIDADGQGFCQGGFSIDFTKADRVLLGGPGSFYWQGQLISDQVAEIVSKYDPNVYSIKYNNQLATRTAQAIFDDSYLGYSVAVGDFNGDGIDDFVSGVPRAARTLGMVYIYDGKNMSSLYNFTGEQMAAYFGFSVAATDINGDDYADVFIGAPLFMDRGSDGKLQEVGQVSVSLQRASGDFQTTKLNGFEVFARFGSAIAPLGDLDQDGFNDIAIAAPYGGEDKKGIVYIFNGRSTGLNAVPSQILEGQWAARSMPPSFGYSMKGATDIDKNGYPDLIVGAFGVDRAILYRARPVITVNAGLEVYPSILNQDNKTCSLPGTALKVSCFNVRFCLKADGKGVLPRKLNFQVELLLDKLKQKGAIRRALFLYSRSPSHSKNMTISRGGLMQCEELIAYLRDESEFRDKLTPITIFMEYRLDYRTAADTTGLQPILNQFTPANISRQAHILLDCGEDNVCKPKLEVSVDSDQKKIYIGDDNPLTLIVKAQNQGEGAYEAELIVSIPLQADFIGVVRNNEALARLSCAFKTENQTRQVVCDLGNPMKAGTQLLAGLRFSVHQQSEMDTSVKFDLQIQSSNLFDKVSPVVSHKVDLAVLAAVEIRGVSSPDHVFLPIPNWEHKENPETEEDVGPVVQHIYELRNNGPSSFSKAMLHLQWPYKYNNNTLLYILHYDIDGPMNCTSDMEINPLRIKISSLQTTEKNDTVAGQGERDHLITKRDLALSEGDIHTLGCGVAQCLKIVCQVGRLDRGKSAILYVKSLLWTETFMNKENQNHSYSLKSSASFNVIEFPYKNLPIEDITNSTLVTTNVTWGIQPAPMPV
- test.protocol: affinity determination of scFv; method and antigen form not stated
pKd reference
Scale for pKd: -log10 of concentration given in mol/L; no unit attached.

Consider the reported pKd for these binders:
14E5Mut42 scFv (scFv, V domains shown) VH: EVPLQQSGAELMKPGASVKISCKATGYTFSTYWIEWIKQRPGHGLEWIGHILPGSVITNYNEKFKGKAAITADTSSNTSYMQLSSLTSEDSAVYYCARWGWDSYWGQGTLVTVSS VL: DIVMTQTPSSLSASLGDRVTISCSASQGISNYLNWYQQKPDGTVKLLIYYTSSLHSGVPSRFSGSGSGTDYSLTISNLEPEDIATYYCQQYSDLPYTFGGGTKLEIK :: 8.47
14E5Mut11 scFv (scFv, V domains shown) VH: EVQLQQSGAELMKPGASVKISCKATGYTFSTNWIEWIKQRPGHGLEWIGHILPGSVITNYNEKFKGKAAITADTSSNTSYMQLSSLTSEDSAVYYCARWGWDSYWGQGTLVTVSS VL: DILMTQSPSSLSASLGDRVTISCSASQGISKYLNWYQQKPDGTVKLLIYYTSSLHSGVPSRFSGSGSGTDYSLTISNLEPEDIATYYCQQYSNLPYTFGGGTKLEIK :: 8.41
14E5Mut83 scFv (scFv, V domains shown) VH: EVQLQQSGAVLMKPGASVKISCKATGYTFSTHWIEWIKQRPGHGLEWIGHILPGSVITNYNEKFKGKAAITADTSSNTSYMQLSSLTSEDSAVYYCARWGWDSYWGQGTLVTVSS VL: DILMTQSPSSLSASLGDRVTISCSASQGISNYLNWYQQKPDGTVKLLIYYTSSLHSGVPSRFSGSGSGTDYSLTISNLEPEDIATYYCQQYSDLPYTFGGGTKLEIK :: 8.75

Give the reported pKd for this binder. 14E5Mut95 scFv (scFv, V domains shown) VH: EVQLQQTGAELMKPGASVKISCKATGYTFSTYWIEWIKQRPGHGLEWIGHILPGSVITNYNEKFKGKAVITADTSSNTSYMQLSSLTSEDSAVYYCARWGWDSYWGQGTLVTVSS VL: DIEMTQSPSSLSASLGDRVTISCSASQGISNYLNWYQQKPDGTVKLLIYYTSSLHSGVPSRFSGSGSGTDYSLTISNLEPEDIATYYCQQYSDLPYTFGGGTKLEIK 8.74
